Experiment: Example 3: pharmacokinetic profile after a single IV bolus, three-compartment open model
Format: in vivo, human
Conditions: human, plasma, intravenous, Total (doses 1-30 µg/kg), N=22; Mean (SD); read-out: λ Half-life
Experimental endpoint: half-life (h)
Kindly provide the numeric value in h only, without the unit symbol.

[in] Identify measured half-life corresponding to CNC(=O)c1cnn(-c2nc(N)c3ncn([C@@H]4O[C@H](CO)[C@@H](O)[C@H]4O)c3n2)c1
[out] 1.44

----------
Assay: Example 3: pharmacokinetic profile after a single IV bolus, three-compartment open model
Format: in vivo, human
Conditions: human, plasma, intravenous, 30 ug/kg, N=3; Mean (SD); read-out: a Half-life
Experimental endpoint: half-life (min)
The answer is to be given in min; state only the numeric part.

[in] Please list half-life recorded for the molecule CNC(=O)c1cnn(-c2nc(N)c3ncn([C@@H]4O[C@H](CO)[C@@H](O)[C@H]4O)c3n2)c1
[out] 3

----------
Assay: Example 3: pharmacokinetic profile after a single IV bolus, three-compartment open model
Type: in vivo, human
Conditions: human, plasma, intravenous, 3 ug/kg, N=4; Mean (SD); read-out: λ Half-life
Experimental endpoint: half-life (h)
Numeric only. Scale: h

[in] Read the entry CNC(=O)c1cnn(-c2nc(N)c3ncn([C@@H]4O[C@H](CO)[C@@H](O)[C@H]4O)c3n2)c1 [CVT-3146] and write its reported half-life.
[out] 2.17

----------
Assay: Example 3: pharmacokinetic profile after a single IV bolus, three-compartment open model
Assay type: in vivo, human
Conditions: male, human, plasma, intravenous; Total (doses 1-30 µg/kg), N=22; Mean (SD)
Experimental endpoint: clearance (mL/min)
Field: numeric (mL/min). Do not append units.

[in] Indicate the recorded clearance value for this molecule: CNC(=O)c1cnn(-c2nc(N)c3ncn([C@@H]4O[C@H](CO)[C@@H](O)[C@H]4O)c3n2)c1
[out] 768

----------
Assay: Example 3: pharmacokinetic profile after a single IV bolus, three-compartment open model
Assay type: in vivo, human
Conditions: human, plasma, intravenous, 10 ug/kg, N=4; Mean (SD); read-out: Vss
Experimental endpoint: Vd (L)
The reply should contain only the number, in L.

[in] Give a short answer stating reported Vd for CNC(=O)c1cnn(-c2nc(N)c3ncn([C@@H]4O[C@H](CO)[C@@H](O)[C@H]4O)c3n2)c1 [CVT-3146] .
[out] 101

----------
Assay: Example 3: pharmacokinetic profile after a single IV bolus, three-compartment open model
Format: in vivo, human
Details: human, plasma, intravenous, 10 ug/kg, N=4; Mean (SD); read-out: β Half-life
Experimental endpoint: half-life (min)
Please respond with the number in min and leave the unit unwritten.

[in] Input CNC(=O)c1cnn(-c2nc(N)c3ncn([C@@H]4O[C@H](CO)[C@@H](O)[C@H]4O)c3n2)c1 [CVT-3146] , output reported half-life.
[out] 50.2

----------
Test: Example 3: pharmacokinetic profile after a single IV bolus, three-compartment open model
Assay type: in vivo, human
Conditions: human, plasma, intravenous, 10 ug/kg, N=4; Mean (SD); read-out: λ Half-life
Experimental endpoint: half-life (h)
Please reply with the bare figure in h and do not write the unit itself.

[in] Give the measured half-life for CNC(=O)c1cnn(-c2nc(N)c3ncn([C@@H]4O[C@H](CO)[C@@H](O)[C@H]4O)c3n2)c1
[out] 2.2

----------
Assay: Example 3: pharmacokinetic profile after a single IV bolus, three-compartment open model
Type: in vivo, human
Conditions: human, plasma, intravenous, 30 ug/kg, N=3; Mean (SD); read-out: β Half-life
Experimental endpoint: half-life (min)
Write the value in min as a bare number.

[in] Provide only the value of recorded half-life for CNC(=O)c1cnn(-c2nc(N)c3ncn([C@@H]4O[C@H](CO)[C@@H](O)[C@H]4O)c3n2)c1
[out] 14
